Taken from paper PMC12037730.

Molecular target: PRPS1 (Homo sapiens)
Sequence (P60891 2-318): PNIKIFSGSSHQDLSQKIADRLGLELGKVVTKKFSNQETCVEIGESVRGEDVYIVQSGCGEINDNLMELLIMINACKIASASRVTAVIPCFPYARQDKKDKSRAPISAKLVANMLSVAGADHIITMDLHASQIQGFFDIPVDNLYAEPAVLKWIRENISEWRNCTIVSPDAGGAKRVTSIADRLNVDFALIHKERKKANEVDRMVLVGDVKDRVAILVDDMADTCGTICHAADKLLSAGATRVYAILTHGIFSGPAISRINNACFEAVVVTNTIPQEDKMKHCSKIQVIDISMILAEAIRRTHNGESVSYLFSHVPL
Attribute measured: pKd
Please report pKd as the negative decimal logarithm of the molar concentration, giving only the number.

Item Nc1nc2c(ncn2[C@@H]2O[C@H](CO[P@](=O)(O)OP(=O)(O)O)[C@@H](O)[C@H]2O)c(=O)[nH]1 [GDP] was tested on PRPS1 (Homo sapiens); the reported pKd is 5.00
